target: human Werner helicase (WRN-BV08, Uniprot Q14191, amino acids 517-1235 with L1074F point mutation) (Homo sapiens, UniProt Q14191, L1074F); construct: Uniprot Q14191, amino acids 517-1235 with L1074F point mutation; TEV-cleavable 8×His (C, cleaved yes); made in house; host or cells: Sf9 insect cells (baculovirus); experiment: WRN (BV08) ADP-Glo Assay; assay type: biochemical; details: 0.15 nM WRN, 5 μM ATP, 0.1 nM DNA duplex, 15 min preincubation, 60 min at 25° C., pH 7.5, 1% DMSO; read-out: ADP-Glo_hWRN_IC50
Sequence (Q14191 with tags, fused parts or gaps L1074F limits assumed): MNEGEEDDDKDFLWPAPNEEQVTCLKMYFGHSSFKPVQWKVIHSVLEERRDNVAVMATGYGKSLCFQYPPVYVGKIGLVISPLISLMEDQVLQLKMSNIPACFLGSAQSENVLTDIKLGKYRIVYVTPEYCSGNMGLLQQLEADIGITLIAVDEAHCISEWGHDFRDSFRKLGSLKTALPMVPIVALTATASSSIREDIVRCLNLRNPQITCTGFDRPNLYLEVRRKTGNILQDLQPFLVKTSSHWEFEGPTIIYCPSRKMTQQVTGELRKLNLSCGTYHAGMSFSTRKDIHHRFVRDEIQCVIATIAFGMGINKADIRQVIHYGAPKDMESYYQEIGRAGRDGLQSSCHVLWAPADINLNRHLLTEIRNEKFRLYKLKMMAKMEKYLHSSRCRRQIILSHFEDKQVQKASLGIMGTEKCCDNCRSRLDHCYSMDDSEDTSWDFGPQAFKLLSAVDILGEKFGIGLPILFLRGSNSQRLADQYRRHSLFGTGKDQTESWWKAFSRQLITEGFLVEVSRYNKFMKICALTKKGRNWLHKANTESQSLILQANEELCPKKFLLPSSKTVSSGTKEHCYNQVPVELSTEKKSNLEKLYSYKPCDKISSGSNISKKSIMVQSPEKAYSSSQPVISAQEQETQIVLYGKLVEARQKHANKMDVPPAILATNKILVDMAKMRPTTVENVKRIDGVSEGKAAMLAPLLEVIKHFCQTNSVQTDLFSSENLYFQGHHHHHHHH
pIC50: −log10 of the molar value.
assay_readout: pIC50

Record excerpt, results attached:
| compound | pIC50 |
| --- | --- |
| O=C(Cn1cnc(-c2ccccc2)cc1=O)N(Cc1ccncc1)C1C=CS(=O)(=O)C1 (centres unmarked) | 4.30 to 5.00 |
| O=C(Cn1nc(-c2ccc(F)cc2)oc1=O)N(Cc1ccncc1)C1C=CS(=O)(=O)C1 (centres unmarked) | 4.30 to 5.00 |
| CCc1cccn1-c1ccc(CC(=O)N(Cc2ccnc(OC)c2)C2C=CS(=O)(=O)C2)c(F)c1 (centres unmarked) | 5.30 to 6.30 |
| COc1cc(CN(C(=O)C(c2ccc(-c3ccc(F)c(F)c3)cc2F)n2cc(OC(F)F)cn2)[C@@H]2C=CS(=O)(=O)C2)ccn1 (single isomer, unassigned) [I-696] | < 4.30 |
| O=C(C1CC(c2ccc(F)cc2)C1)N(Cc1ccncc1)C1C=CS(=O)(=O)C1 (centres unmarked) | < 4.30 |
| COC(C(=O)N(Cc1ccnc(C(C)(C)O)c1)C1C=CS(=O)(=O)C1)c1ccc(C(F)(F)F)cc1 (centres unmarked) | 5.30 to 6.30 |

Q: Reported pIC50, compound COc1cc(CN(C(=O)Cn2cc(-c3ccc(Cl)cc3)cn2)C2C=CS(=O)(=O)C2)ccn1 (centres unmarked) : ____
A: > 6.30

Q: Requested read-out: pIC50. Entry: O=C(Cc1ccc(-c2ccc(F)cc2)cc1)N(Cc1nc(C2CC2)cs1)C1C=CS(=O)(=O)C1 (centres unmarked)
A: 5.30 to 6.30

Q: Could you tell me which pIC50 is on file for CC(C)(O)c1cc(CN(C(=O)C(OCC(F)F)c2ccc(-c3ccc(F)c(F)c3)cc2F)[C@@H]2C=CS(=O)(=O)C2)ccn1 (single isomer, unassigned) ?
A: > 6.30

Q: Query: pIC50; subject: O=C(Cc1ccc(-n2cccc2)cc1)N(Cc1nccs1)C1C=CS(=O)(=O)C1 (centres unmarked)
A: 5.00 to 5.30

Q: Consider the compound shown here: COc1cc(CN(C(=O)Cn2nc3ccc(C(F)(F)F)cc3c2C)[C@@H]2C=CS(=O)(=O)C2)ccn1 What is its recorded pIC50?
A: 5.00 to 5.30

Q: Could you share which pIC50 value was measured for CC(C)(O)c1cc(CN(C(=O)C(c2ccc(-c3ccc(F)c(F)c3)cc2F)n2ccnn2)[C@@H]2C=CS(=O)(=O)C2)ccn1 (single isomer, unassigned) ?
A: > 6.30

Q: Consider the compound shown here: O=C(Cc1coc(-c2ccc(F)cc2)n1)N(Cc1ccncc1)C1C=CS(=O)(=O)C1 (centres unmarked) What is its recorded pIC50?
A: < 4.30

Q: Requested field: pIC50. Item: COc1cc([C@H](C)N(C(=O)Cn2cc(-c3cc(F)c(F)c(F)c3)cn2)[C@@H]2C=CS(=O)(=O)C2)ccn1
A: > 6.30

Q: Given the entry O=C(Cn1cc(-c2ccc(F)c(F)c2)cn1)N(Cc1nc(C2(F)CC2)cs1)C1C=CS(=O)(=O)C1 (centres unmarked) , report its measured pIC50.
A: > 6.30

Q: Fill in the blank: the reported pIC50 of CC(C(=O)N(Cc1ccnc(C(C)(C)O)c1)C1C=CS(=O)(=O)C1)n1cc(-c2cc(F)c(F)c(F)c2)cn1 (single isomer, unassigned) [I-777] is ____.
A: > 6.30

Q: Please look up its pIC50: O=C(Cc1ccc2ncccc2c1)N(Cc1ccncc1)C1C=CS(=O)(=O)C1 (centres unmarked)
A: < 4.30

Q: May I ask what pIC50 has been recorded for COc1cc(CN(C(=O)Cc2ccc(S(F)(F)(F)(F)F)cc2)[C@H]2C=CS(=O)(=O)C2)ccn1 ?
A: < 4.30

Q: Consider the compound COc1cc(CN(C(=O)Cc2ccc(-n3cccc3C)cc2)C2C=CS(=O)(=O)C2)ccn1 (centres unmarked) and give its measured pIC50.
A: 5.30 to 6.30

Q: What pIC50 value was documented for this compound, CC(C)(O)c1cc(CN(C(=O)C(OCC2CC(F)(F)C2)c2ccc(-c3ccc(F)c(F)c3)cc2F)[C@@H]2C=CS(=O)(=O)C2)ccn1 (stereo in doubt) ?
A: 5.30 to 6.30

Q: Recorded pIC50 for CC(C)(O)c1cc(CN(C(=O)C(c2ccc(-c3ccc(F)c(F)c3)cc2F)n2ccnn2)C2C=CS(=O)(=O)C2)ccn1 (single isomer, unassigned) [I-802] , please?
A: 5.30 to 6.30

Q: Bench note: what pIC50 did CC(C)C(=O)NC(Cc1c[nH]c2ccccc12)C(=O)N(Cc1ccncc1)C1C=CS(=O)(=O)C1 (centres unmarked) show?
A: < 4.30

Q: Need pIC50, item CC(C)(O)c1cc(CN(C(=O)Cn2cc(-c3ccc(F)cc3)cn2)C2C=CS(=O)(=O)C2)ccn1 (centres unmarked)
A: > 6.30

Q: Name the recorded pIC50 for CC(=O)N(C)C(C(=O)N(Cc1ccncc1)C1C=CS(=O)(=O)C1)c1ccc(-c2ccc(F)cc2)cc1 (single isomer, unassigned) [I-282] .
A: 4.30 to 5.00

Q: What value of pIC50 has been recorded for this entry: CC(C)(O)c1csc(CN(C(=O)Cn2cc(-c3cc(F)c(F)c(F)c3)cn2)C2C=CS(=O)(=O)C2)n1 (centres unmarked) [I-797]
A: > 6.30

Q: Which pIC50 is listed for O=C(C1CCc2cc(Br)ccc2O1)N(Cc1ccncc1)C1C=CS(=O)(=O)C1 (centres unmarked) ?
A: < 4.30
